# MEASUREMENT DESCRIPTION: viability loss of HPDE-C7K cells – cell-based, fluorescence, HTS, primary screen (AID 431)
# MEASUREMENT PARAMETERS: HPDE-C7K KRASV12 cells, Alamar Blue viability, 48 h; at 10 µM
About 1,100 (1.7%) of roughly 63,000 compounds were called active.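 The calls were made as follows: active = compounds whose percent cytotoxicity in the single-dose primary screen, scaled between solvent and toxic-drug controls, exceeds 50; inactive = the rest.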 The sample as a whole holds a higher share of actives than the screen did. Potency and affinity values are given separately.
Hello, when you answer, please use one of the following outcomes: y (active), n (inactive)

A selection of reference data follows.
| MOLECULE | CLASS LABEL |
| --- | --- |
| O=S(=O)(c1ccc(N2CCOCC2)cc1)N1CCOCC1 | n |
| CCc1ccc(NC(=O)c2noc3c2CCCCC3)cc1 | n |
| COc1ccc(N2CC(O)=C(c3nc4ccccc4s3)C2=N)c(OC)c1 | n |

Consider now this further molecule.
Q: In this assay, the call recorded for C=CCn1c(SCc2csc(C)n2)nc2sc3c(c2c1=O)CCCCC3 was what?
Result: n

Where do these numbers come from? They come from PubChem BioAssay AID431.
